- system.name: human NTCP (Homo sapiens, UniProt Q14973)
- Sequence (Q14973 1-349): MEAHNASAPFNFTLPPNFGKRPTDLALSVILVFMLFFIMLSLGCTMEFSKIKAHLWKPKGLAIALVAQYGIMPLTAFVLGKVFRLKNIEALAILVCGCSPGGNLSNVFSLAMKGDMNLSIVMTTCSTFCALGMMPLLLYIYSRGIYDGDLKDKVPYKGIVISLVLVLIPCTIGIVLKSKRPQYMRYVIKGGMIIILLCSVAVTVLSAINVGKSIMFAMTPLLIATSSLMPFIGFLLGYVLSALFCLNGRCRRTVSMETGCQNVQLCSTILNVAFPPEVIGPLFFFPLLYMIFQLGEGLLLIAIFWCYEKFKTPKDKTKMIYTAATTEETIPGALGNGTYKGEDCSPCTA
- test.protocol: Screening taurocholate uptake assay (96-well, [14C]taurocholate, 10 µM drug)
- recorded.conditions: ranking over the functional and the binding screening assay
measurement.name: Ranking score
Reply with the value as a number alone.

// worked examples, Ranking score included
molecule | Ranking score
CCN(CC)C(=S)SSC(=S)N(CC)CC | 82.3772
O=C(O)CCCC[C@@H]1SC[C@@H]2NC(=O)N[C@@H]21 | 66.9328
CCOC(=O)O[C@]1(C(=O)OCCl)CC[C@H]2[C@@H]3CCC4=CC(=O)C=C[C@]4(C)[C@H]3[C@@H](O)C[C@@]21C [Loteprednol etabonate] | 211.225
CN1CCN(CCCN2c3ccccc3Sc3ccc(Cl)cc32)CC1 [Prochlorperazine dimaleate] | 89.1291
O=C(O)c1cc(-c2ccc(F)cc2F)ccc1O | 134.198

Next up:
Give its Ranking score value. Item: `CCOC(=O)N1CCC(=C2c3ccc(Cl)cc3CCc3cccnc32)CC1` 78.3326

* * *

- system.name: human NTCP (Homo sapiens, UniProt Q14973)
- test.protocol: Screening taurocholate uptake assay (96-well, [14C]taurocholate, 10 µM drug)
- recorded.conditions: ranking score beside the functional and binding assay B-scores of the screen
Where a name gives a salt, the structure may show the parent alone.
Doc: threshold 700 (exclusive). Items with Ranking score beneath it return MET; others return NOT MET.

Use the examples below as a reference point.
molecule | assigned.label
Nc1ccc(O)c(C(=O)O)c1 | NOT MET
CCCN(CCC)CCc1cccc2c1CC(=O)N2 [Ropinirole HCl] | NOT MET
CC(C)NC[C@@H](O)COc1ccc(CC(N)=O)cc1 [(R)-(+)-Atenolol] | MET
O=C1C(O)=C([C@H]2CC[C@H](c3ccc(Cl)cc3)CC2)C(=O)c2ccccc21 | MET
Oc1ncnc2[nH]ncc12 | NOT MET
CC(C(O)c1ccc(O)cc1)N1CCC(Cc2ccccc2)CC1.CC(C(O)c1ccc(O)cc1)N1CCC(Cc2ccccc2)CC1.O=C(O)C(O)C(O)C(=O)O (stereo not drawn) [Ifenprodil tartrate] | NOT MET
CCCCc1oc2ccccc2c1C(=O)c1cc(I)c(OCCN(CC)CC)c(I)c1 [Amiodarone hydrochloride] | NOT MET

Next, consider the following molecule.
Bench note: check whether `Nc1nc2c(ncn2COCCO)c(=O)[nH]1` shows Ranking score below 700 MET

* * *

- system.name: human NTCP (Homo sapiens, UniProt Q14973)
- Sequence (Q14973 1-349): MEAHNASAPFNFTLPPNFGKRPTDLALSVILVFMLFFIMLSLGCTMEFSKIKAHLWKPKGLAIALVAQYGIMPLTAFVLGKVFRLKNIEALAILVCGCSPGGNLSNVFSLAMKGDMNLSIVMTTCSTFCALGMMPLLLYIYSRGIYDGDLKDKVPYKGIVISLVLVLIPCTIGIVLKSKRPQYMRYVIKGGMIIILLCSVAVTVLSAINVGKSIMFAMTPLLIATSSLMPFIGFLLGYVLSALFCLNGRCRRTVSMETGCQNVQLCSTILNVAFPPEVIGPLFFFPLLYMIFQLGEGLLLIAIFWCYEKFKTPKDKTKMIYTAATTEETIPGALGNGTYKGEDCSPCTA
- test.protocol: Screening fluorescent competitive Myrcludex B-FITC binding assay (96-well, 10 µM drug)
- recorded.conditions: screen, 10 µM drug, Myrcludex B-FITC binding
Structures can show the parent of a compound that is named as a salt.
Doc: threshold -1 (exclusive). Items with B-score binding assay beneath it return 1; others return 0.

Use the examples below as a reference point.
molecule | assigned.label
C=CCOc1ccccc1OCC(O)CNC(C)C (centres unmarked) [Oxprenolol hydrochloride] | 0
CC1=C(C(=O)O)N2C(=O)[C@@H](NC(=O)[C@H](N)c3ccc(O)cc3)[C@H]2SC1 [Cefadroxil] | 0
O=P1(NCCCl)OCCCN1CCCl (centres unmarked) [Ifosfamide] | 1
CC(=O)Oc1cc(C(C)C)c(OCCN(C)C)cc1C.Cl [Moxisylyte hydrochoride] | 0
CC(=O)O[C@H]1CC[C@@]2(C)C(=CC[C@@H]3[C@@H]2CC[C@]2(C)C(=O)CC[C@@H]32)C1 [Dehydroisoandosterone 3-acetate] | 0

Bench note: check whether O=C(O)c1cn(-c2ccc(F)cc2)c2cc(N3CCNCC3)c(F)cc2c1=O [Sarafloxacin] shows B-score binding assay below -1 0

Try COc1cccc(C2(O)CCCCC2CN(C)C)c1.Cl (centres unmarked) [Tramadol hydrochloride] next. 1

Try CC1(C)S[C@@H]2[C@H](NC(=O)Cc3ccccc3)C(=O)N2[C@H]1C(=O)O [Benzylpenicillin sodium] next. 1

Data credit: paper PMC5681660
